Tested on: HT1080
Experiment: relative viability vs DMSO control (72 h) (fraction); higher = more viable cells
Details: 0.1235 µM
EXPERIMENTAL_READOUT: relative viability
Give bare numbers.

MOLECULE_SMILES	EXPERIMENTAL_READOUT	MEASURED
CCc1cnn2c(NCc3ccc[n+]([O-])c3)cc(N3CCCC[C@H]3CCO)nc12	relative viability	0.208

Kindly give each listed record's relative viability.
1. CNC(=O)c1ccccc1Sc1ccc2c(/C=C/c3ccccn3)n[nH]c2c1
2. C[C@H](Nc1ncnc2nc[nH]c12)c1cc2cccc(Cl)c2c(=O)n1-c1ccccc1
3. COC(=O)N[C@@H](C)CNc1nccc(-c2cn(C(C)C)nc2-c2cc(Cl)cc(NS(C)(=O)=O)c2F)n1
4. CN1CC[C@@H](NC(=O)Nc2ccc(C#N)cc2)C[C@@H]1c1nc2ccccc2[nH]1
5. CC[C@@H]1CN(C(=O)NCC(F)(F)F)C[C@@H]1c1cnc2cnc3[nH]ccc3n12

[reply]
1. 1.08
2. 1.12
3. 1.06
4. 1.1
5. 1.05

[ask] Note relative viability for the compound shown: `CC(C)(O)CNc1nc(Nc2ccnc(C(F)(F)F)c2)nc(-c2cccc(C(F)(F)F)n2)n1`
[reply] 1.05

---

Tested on: SW684
Assay: standardised AUC of viability dose-response curve (72 h) (fraction (0-1)); higher = less growth inhibition (more resistant)
Please provide measured standardised AUC for the entries that follow.
Numbers only.

Here are 5 compounds together with their reported answers.
COMPOUND	standardised AUC
CC(C)(O)CNc1nc(Nc2ccnc(C(F)(F)F)c2)nc(-c2cccc(C(F)(F)F)n2)n1 [ENASIDENIB]	0.973
C[C@]12O[C@H](C[C@]1(O)CO)n1c3ccccc3c3c4c(c5c6ccccc6n2c5c31)CNC4=O [LESTAURTINIB]	0.805
CO[C@H]1C[C@@H]2CC[C@@H](C)[C@@](O)(O2)C(=O)C(=O)N2CCCC[C@H]2C(=O)O[C@H]([C@H](C)C[C@@H]2CC[C@@H](OCCO)[C@H](OC)C2)CC(=O)[C@H](C)/C=C(\C)[C@@H](O)[C@@H](OC)C(=O)[C@H](C)C[C@H](C)/C=C/C=C/C=C/1C [CERTICAN]	0.841
O=C1NC(=O)[C@@H](c2cn3c4c(cccc24)CCC3)[C@@H]1c1c[nH]c2ccccc12 [TIVANTINIB]	0.883
CNC(=O)c1ccccc1Sc1ccc2c(/C=C/c3ccccn3)n[nH]c2c1 [AXITINIB]	0.954

Now for another entry.
[ask] Find the measured standardised AUC of CN1CC[C@@H](NC(=O)Nc2ccc(C#N)cc2)C[C@@H]1c1nc2ccccc2[nH]1 [GLASDEGIB] and report it.
[reply] 0.99

---

Exercise: state measured relative viability for each of the compounds provided.
Test system: RD
Assay: relative viability vs DMSO control (72 h) (fraction); higher = more viable cells
Details: 0.00457 µM

Would you please look over these solved cases?
MOLECULE_SMILES	relative viability
CNC(=O)c1nnc(NC(=O)C2CC2)cc1Nc1cccc(-c2ncn(C)n2)c1OC	1.12
Cc1cc2c(F)c(Oc3ncnn4cc(OC[C@@H](C)O)c(C)c34)ccc2[nH]1	1.07

[ask] Give a short answer stating reported relative viability for `CNC(=O)c1ccccc1Sc1ccc2c(/C=C/c3ccccn3)n[nH]c2c1` .
[reply] 1.01
